src = patent US11344559B2

# Tested on: CCL2 protein levels
# assay.summary: Secondary screening: CCL2 protein ELISA in M1 polarized bone marrow derived macrophages
# Assay type: cell-based
# conditions: Z score of CCL2 protein (ELISA); 1 μM compound, 24 h, IFNg+LPS (M1) polarized bone marrow derived macrophages
# Method: Primary screening was performed on 507 compounds identified by the above-described computational screening. […] Additionally, viability of polarized macrophages incubated with compounds was measured using an MTT assay, a colorimetric assay that measures cell metabolic activity by quantifying NAD(P)H-dependent cellular oxidoreductase reduction of the tetrazolium dye MTT 3-(4,5-dimethylthiazol-2-yl)-2,5-diphenyltetrazolium bromide to its insoluble purple colored formazan. […]
The entries below come with measured Secondary Screen ZCCL2 values attached.
Just the number, please, no unit after it.

Worked examples follow.
>  <compound>
CCc1cc(NCCc2csc(N)n2)n2nc(C)c(C)c2n1

>  <tested.on>
CCL2 protein levels

>  <Secondary Screen ZCCL2>
−1.61

$$$$
>  <compound>
OCCc1cn(C2CCN(Cc3cccnc3)CC2)nn1

>  <tested.on>
CCL2 protein levels

>  <Secondary Screen ZCCL2>
−1.46

$$$$

According to the records, this compound CC(=O)N1CC2(CCN(S(C)(=O)=O)CC2)CC1C(=O)O (stereo not drawn) displays Secondary Screen ZCCL2 of −1.79
